Entries with reported Kd on SOS1 catalytic domain (residues 564-1049) (Homo sapiens, UniProt Q07889)

• CC(=O)N1CC(F)(C(=O)N2Cc3nc(Cl)nc(N[C@H](C)c4cccc(C(F)F)c4F)c3C2)C1 = < 400 nM

Which Kd is reported with SOS1 catalytic domain (residues 564-1049) (Homo sapiens, UniProt Q07889) for this entry: C[C@@H](Nc1nc(Cl)nc2c1CN(C(=O)CC1COCCN1C)C2)c1cccc(C(F)F)c1F (some centres unmarked) ?
< 400 nM

Which Kd is reported with SOS1 catalytic domain (residues 564-1049) (Homo sapiens, UniProt Q07889) for this entry: C[C@@H](Nc1nc(Cl)nc2c1CN(C(=O)C1(C#N)CC1)CC2)c1cc(N)cc(C(F)(F)F)c1 ?
> 400 nM

Which Kd is reported with SOS1 catalytic domain (residues 564-1049) (Homo sapiens, UniProt Q07889) for this entry: C[C@@H](Nc1nc(Cl)nc2c1CN(C(=O)C1(C#N)CCOCC1)C2)c1cc(N)cc(C(F)(F)F)c1 ?
< 400 nM

Which Kd is reported with SOS1 catalytic domain (residues 564-1049) (Homo sapiens, UniProt Q07889) for this entry: C[C@@H](Nc1nc(Cl)nc2c1CN(S(=O)(=O)N1CCOCC1)CC2)c1cccc(C(F)(F)F)c1 ?
> 400 nM

Which Kd is reported with SOS1 catalytic domain (residues 564-1049) (Homo sapiens, UniProt Q07889) for this entry: COC(=O)N1Cc2nc(C)nc(N[C@H](C)c3cc(N)cc(C(F)(F)F)c3)c2C1 ?
> 400 nM

Which Kd is reported with SOS1 catalytic domain (residues 564-1049) (Homo sapiens, UniProt Q07889) for this entry: C[C@@H](Nc1nc(Cl)nc2c1CN(C(=O)N1CC3CCC(C1)O3)C2)c1cc(N)cc(C(F)(F)F)c1 ?
< 400 nM

Which Kd is reported with SOS1 catalytic domain (residues 564-1049) (Homo sapiens, UniProt Q07889) for this entry: COC1CN([C@@H]2CCc3nc(Cl)nc(N[C@H](C)c4cc(N)cc(C(F)(F)F)c4)c3C2)C1 ?
< 400 nM

Which Kd is reported with SOS1 catalytic domain (residues 564-1049) (Homo sapiens, UniProt Q07889) for this entry: C[C@@H](Nc1nc(Cl)nc2c1CN(C(=O)N1CCNc3ncncc31)C2)c1cccc(C(F)F)c1F ?
< 400 nM

Which Kd is reported with SOS1 catalytic domain (residues 564-1049) (Homo sapiens, UniProt Q07889) for this entry: COC1(C(=O)N2Cc3nc(Cl)nc(N[C@H](C)c4cccc(C(F)F)c4F)c3C2)CCN(C)CC1 ?
< 400 nM

Which Kd is reported with SOS1 catalytic domain (residues 564-1049) (Homo sapiens, UniProt Q07889) for this entry: C[C@@H](Nc1nc(Cl)nc2c1CC(C(=O)N1CCOCC1)CC2)c1cc(N)cc(C(F)(F)F)c1 (some centres unmarked) ?
< 400 nM

* * *

Target: SOS1 catalytic domain (residues 564-1049) (Homo sapiens)
Sequence (Q07889 564-1049): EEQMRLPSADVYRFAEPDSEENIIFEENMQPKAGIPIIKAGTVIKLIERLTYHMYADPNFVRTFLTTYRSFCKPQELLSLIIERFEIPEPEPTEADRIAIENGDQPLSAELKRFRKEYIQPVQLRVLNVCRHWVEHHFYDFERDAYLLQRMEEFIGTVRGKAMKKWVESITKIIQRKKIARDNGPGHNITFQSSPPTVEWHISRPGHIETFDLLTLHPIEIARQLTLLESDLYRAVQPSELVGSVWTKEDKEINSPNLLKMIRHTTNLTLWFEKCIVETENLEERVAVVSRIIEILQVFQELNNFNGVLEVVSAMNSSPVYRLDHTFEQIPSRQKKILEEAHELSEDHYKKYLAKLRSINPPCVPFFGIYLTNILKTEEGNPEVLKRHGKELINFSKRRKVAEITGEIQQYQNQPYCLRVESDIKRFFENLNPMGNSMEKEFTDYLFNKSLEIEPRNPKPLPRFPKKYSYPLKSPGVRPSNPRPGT
pIC50: −log10 of the molar value.
assay.readout: pIC50

Reference set (4 entries):
• COc1ccc(CC(=O)N2Cc3nc(Cl)nc(N[C@H](C)c4cc(N)cc(C(F)(F)F)c4)c3C2)cc1OC = < 6.00
• C[C@@H](Nc1nc(Cl)nc2c1CN(C(=O)C1(F)CCNCC1)C2)c1cc(N)cc(C(F)(F)F)c1 = > 6.00
• C[C@@H](Nc1nc(Cl)nc2c1CN(C(=O)C1(C)CN(CCF)C1)C2)c1cccc(C(F)F)c1F = > 6.00
• C[C@@H](Nc1nc(Cl)nc2c1CN(C(=O)[C@@H]1CNCCO1)C2)c1cccc(C(F)F)c1F = > 6.00

What pIC50 value was documented for this molecule, C[C@@H](Nc1nc(Cl)nc2c1CN(C(=O)N1CCOCC1)C2)c1cccc(C(C)(C)C#N)c1 ?
> 6.00

What pIC50 value was documented for this molecule, C[C@@H](Nc1nc(Cl)nc2c1CN(S(=O)(=O)C1CC1)CC2)c1cc(N)cc(C(F)(F)F)c1 ?
> 6.00

What pIC50 value was documented for this molecule, C[C@@H](Nc1nc(Cl)nc2c1CN(C(=O)N1CCNc3ncccc31)C2)c1cccc(C(F)F)c1F ?
> 6.00

* * *

// reported pIC50 per item
Tested on: PC-9 cells (EGFR Ex19Del)
Experiment: Potency Assay: pERK (SOS1 pERK IC50 Assay, AlphaLISA SureFire Ultra p-ERK1/2)
Assay type: cell-based
Conditions: Homo sapiens, PC-9, 1 h, read-out: SOS1 pERK IC50
pIC50: −log10 of the molar value.

Reference set (3 entries):
* CC(Nc1nc(Cl)nc2c1CN(C(=O)N1CCOCC1)C2)c1ccc(-c2ccccc2)s1 (centres unmarked) | < 6.00
* C[C@@H](Nc1nc(Cl)nc2c1CN(C(=O)N1CCOCC1)C2)c1csc(C(F)F)c1F | < 6.00
* C[C@@H](Nc1nc(Cl)nc2c1CN(C(=O)N1CCOCC1)C2)c1cccc(NC2CC2)c1 | < 6.00

What pIC50 value was documented for this compound, C[C@@H](Nc1nc(Cl)nc2c1CN(C(=O)N1CCOCC1)C2)c1cccc(C(C)(C)C#N)c1 ?
< 6.00

What pIC50 value was documented for this compound, C[C@@H](Nc1nc(Cl)nc2c1CN(C(=O)OC1CCOCC1)C2)c1cc(N)cc(C(F)(F)F)c1 ?
> 6.00

What pIC50 value was documented for this compound, CC(Nc1nc(Cl)nc2c1CN(C(=O)N1CCOCC1)C2)c1nccc(C(F)F)c1F (centres unmarked) ?
< 6.00

What pIC50 value was documented for this compound, Cc1nc2c(c(N[C@H](C)c3cc(N)cc(C(F)(F)F)c3)n1)CN(C(=O)C1CCN(C)CC1)C2 ?
< 6.00

What pIC50 value was documented for this compound, C[C@@H](Nc1nc(Cl)nc2c1CN(C(=O)C1CCN(C)CC1)C2)c1cc(N)cc(C(F)(F)F)c1 ?
> 6.00

* * *

Entries with reported IC50 on SOS1 catalytic domain (residues 564-1049) (Homo sapiens)

• CC(CO)c1cccc(C(C)Nc2nc(Cl)nc3c2CN(C(=O)N2CCOCC2)C3)c1 (stereo not drawn) = < 1000 nM
• CC(O)c1cccc(C(C)Nc2ncnc3c2CN(C(=O)N2CCOCC2)C3)c1 (stereo not drawn) = > 1000 nM

Which IC50 is reported with SOS1 catalytic domain (residues 564-1049) (Homo sapiens) for this entry: C[C@@H](Nc1nc(Cl)nc2c1CN(C(=O)[C@@H]1COC[C@@H]1N)C2)c1cccc(C(F)F)c1F ?
< 1000 nM

Which IC50 is reported with SOS1 catalytic domain (residues 564-1049) (Homo sapiens) for this entry: COC1(C(=O)N2CCc3nc(Cl)nc(N[C@H](C)c4cc(N)cc(C(F)(F)F)c4)c3C2)CCCOC1 (stereo partly drawn) ?
> 1000 nM

* * *

Target: SOS1 catalytic domain (residues 564-1049) (Homo sapiens, UniProt Q07889)
Sequence (Q07889 564-1049): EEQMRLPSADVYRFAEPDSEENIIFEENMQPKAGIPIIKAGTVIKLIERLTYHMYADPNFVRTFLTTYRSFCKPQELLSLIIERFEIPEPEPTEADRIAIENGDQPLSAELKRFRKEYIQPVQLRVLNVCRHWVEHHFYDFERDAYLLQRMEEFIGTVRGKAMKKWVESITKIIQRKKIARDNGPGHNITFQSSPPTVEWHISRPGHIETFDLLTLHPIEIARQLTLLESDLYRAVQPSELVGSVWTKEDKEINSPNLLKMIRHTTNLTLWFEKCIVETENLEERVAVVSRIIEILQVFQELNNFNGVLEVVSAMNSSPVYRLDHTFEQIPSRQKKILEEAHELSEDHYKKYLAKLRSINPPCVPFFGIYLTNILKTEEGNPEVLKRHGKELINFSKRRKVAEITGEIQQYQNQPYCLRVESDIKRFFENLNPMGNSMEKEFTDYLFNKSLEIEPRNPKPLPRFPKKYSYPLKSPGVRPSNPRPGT
assay.readout: Kd

Which Kd is reported with SOS1 catalytic domain (residues 564-1049) (Homo sapiens, UniProt Q07889) for this entry: C[C@@H](Nc1nc(Cl)nc2c1CN(S(=O)(=O)C1CC(F)(F)C1)CC2)c1cc(N)cc(C(F)(F)F)c1 ?
< 400 nM

Which Kd is reported with SOS1 catalytic domain (residues 564-1049) (Homo sapiens, UniProt Q07889) for this entry: CCc1cc(N)cc(C(C)Nc2nc(Cl)nc3c2CN(C(=O)N2CCOCC2)C3)c1 (stereo not shown) ?
< 400 nM

Which Kd is reported with SOS1 catalytic domain (residues 564-1049) (Homo sapiens, UniProt Q07889) for this entry: C[C@@H](Nc1nc(Cl)nc2c1CN(C(=O)[C@H]1COCCN1)C2)c1cccc(C(F)F)c1F ?
< 400 nM

Which Kd is reported with SOS1 catalytic domain (residues 564-1049) (Homo sapiens, UniProt Q07889) for this entry: C[C@@H](Nc1nc(Cl)nc2c1CN(C(=O)N1CCOCC1)C2)c1cccc(C(F)F)c1 ?
< 400 nM

Which Kd is reported with SOS1 catalytic domain (residues 564-1049) (Homo sapiens, UniProt Q07889) for this entry: C[C@@H](Nc1nc(Cl)nc2c1CN(C(=O)N1C[C@H]3C[C@@H]1CN3C)C2)c1cccc(C(F)F)c1F ?
< 400 nM

Which Kd is reported with SOS1 catalytic domain (residues 564-1049) (Homo sapiens, UniProt Q07889) for this entry: C[C@@H](Nc1nc(Cl)nc2c1CN(C(=O)C1(N)CCCOC1)C2)c1cc(N)cc(C(F)(F)F)c1 (stereo partly shown) ?
< 400 nM

Which Kd is reported with SOS1 catalytic domain (residues 564-1049) (Homo sapiens, UniProt Q07889) for this entry: C[C@@H](Nc1nc(Cl)nc2c1CN(C(=O)c1ccc(-n3ccnc3)cn1)CC2)c1cc(N)cc(C(F)(F)F)c1 ?
> 400 nM
